Entries and their measured viability, T/C follow.
- System: 966289-007-R4-J1-PDC complex spheroid viability
- assay.name: Anticancer human tumor 966289-007-R4-J1-PDC patient-derived pancreatic adenocarcinoma cell line growth inhibition [GQUAD]
- experimental.parameters: second compound 0.0316 µM; first compound 3.16 µM; active compounds read low
test.readout: viability, T/C (%)

[[record]]
molecule = "CC1COCCN1c1cc(C2(O)CC3CCC(C2)O3)c2cnn(-c3ccn[nH]3)c2n1 (stereo not drawn) + CN(C)c1ccc(Nc2c3ccc(NC(=O)CCN4CCCC4)cc3nc3cc(NC(=O)CCN4CCCC4)ccc23)cc1"
result_units = "%"
recorded_value = 5.79

[[record]]
molecule = "O=c1[nH]cc(F)c(=O)[nH]1 + CN(C)c1ccc(Nc2c3ccc(NC(=O)CCN4CCCC4)cc3nc3cc(NC(=O)CCN4CCCC4)ccc23)cc1"
result_units = "%"
recorded_value = 5.63

[[record]]
molecule = "CC1COCCN1c1cc(-c2ccnn2C)c2ccnc(-c3ccn[nH]3)c2n1 (stereo not drawn) + Cc1[nH]c2ccc(F)cc2c1-c1nc2c3cccnc3c3ncccc3c2[nH]1"
result_units = "%"
recorded_value = 4.65


###

- System: 966289-007-R4-J1-PDC complex spheroid viability
- assay.name: Anticancer human tumor 966289-007-R4-J1-PDC cell line growth inhibition [GQUAD];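 note: spheroids exposed to the agents for seven days before readout; percent viability relative to DMSO vehicle control wells taken as 100%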
- experimental.parameters: second compound 0.316 µM; first compound 0.0999 µM; active compounds read low
Label Met when viability, T/C < 30%; otherwise Not met.

[[record]]
compound = "Cn1ncnc1[C@H]1c2n[nH]c(=O)c3cc(F)cc(c23)N[C@@H]1c1ccc(F)cc1 + Cc1cnc(CNC(=O)c2c(=O)c3ccc(N4CCCN(C)CC4)nc3n3c2sc2ccccc23)cn1"
class_assignment = "Met"

[[record]]
compound = "Cn1ncnc1[C@H]1c2n[nH]c(=O)c3cc(F)cc(c23)N[C@@H]1c1ccc(F)cc1 + Cc1[nH]c2ccc(F)cc2c1-c1nc2c3cccnc3c3ncccc3c2[nH]1"
class_assignment = "Not met"

[[record]]
compound = "CC[C@@]1(O)C(=O)OCc2c1cc1n(c2=O)Cc2cc3c(CN(C)C)c(O)ccc3nc2-1 + Cc1[nH]c2ccc(F)cc2c1-c1nc2c3cccnc3c3ncccc3c2[nH]1"
class_assignment = "Met"

[[record]]
compound = "CCc1c2c(nc3ccc(O)cc13)-c1cc3c(c(=O)n1C2)COC(=O)[C@]3(O)CC + CN(C)c1ccc(Nc2c3ccc(NC(=O)CCN4CCCC4)cc3nc3cc(NC(=O)CCN4CCCC4)ccc23)cc1"
class_assignment = "Met"

[[record]]
compound = "Cn1ncnc1[C@H]1c2n[nH]c(=O)c3cc(F)cc(c23)N[C@@H]1c1ccc(F)cc1 + CN(C)c1ccc(Nc2c3ccc(NC(=O)CCN4CCCC4)cc3nc3cc(NC(=O)CCN4CCCC4)ccc23)cc1"
class_assignment = "Not met"

[[record]]
compound = "CCc1c2c(nc3ccc(O)cc13)-c1cc3c(c(=O)n1C2)COC(=O)[C@]3(O)CC + Cc1[nH]c2ccc(F)cc2c1-c1nc2c3cccnc3c3ncccc3c2[nH]1"
class_assignment = "Met"

[[record]]
compound = "Cc1[nH]c2ccccc2c1CCNCc1ccc(/C=C/C(=O)NO)cc1 + Cc1[nH]c2ccc(F)cc2c1-c1nc2c3cccnc3c3ncccc3c2[nH]1"
class_assignment = "Not met"

[[record]]
compound = "Cc1[nH]c2ccccc2c1CCNCc1ccc(/C=C/C(=O)NO)cc1 + CN(C)c1ccc(Nc2c3ccc(NC(=O)CCN4CCCC4)cc3nc3cc(NC(=O)CCN4CCCC4)ccc23)cc1"
class_assignment = "Not met"

[[record]]
compound = "CC[C@@]1(O)C(=O)OCc2c1cc1n(c2=O)Cc2cc3c(CN(C)C)c(O)ccc3nc2-1 + CN(C)c1ccc(Nc2c3ccc(NC(=O)CCN4CCCC4)cc3nc3cc(NC(=O)CCN4CCCC4)ccc23)cc1"
class_assignment = "Met"

[[record]]
compound = "CCc1c2c(nc3ccc(O)cc13)-c1cc3c(c(=O)n1C2)COC(=O)[C@]3(O)CC + Cc1cnc(CNC(=O)c2c(=O)c3ccc(N4CCCN(C)CC4)nc3n3c2sc2ccccc23)cn1"
class_assignment = "Met"

[[record]]
compound = "Cc1[nH]c2ccccc2c1CCNCc1ccc(/C=C/C(=O)NO)cc1 + Cc1cnc(CNC(=O)c2c(=O)c3ccc(N4CCCN(C)CC4)nc3n3c2sc2ccccc23)cn1"
class_assignment = "Met"

[[record]]
compound = "CC[C@@]1(O)C(=O)OCc2c1cc1n(c2=O)Cc2cc3c(CN(C)C)c(O)ccc3nc2-1 + Cc1cnc(CNC(=O)c2c(=O)c3ccc(N4CCCN(C)CC4)nc3n3c2sc2ccccc23)cn1"
class_assignment = "Met"

